- target under test: PLK4 (h) (Homo sapiens, UniProt O00444)
- Sequence (O00444 whole entry): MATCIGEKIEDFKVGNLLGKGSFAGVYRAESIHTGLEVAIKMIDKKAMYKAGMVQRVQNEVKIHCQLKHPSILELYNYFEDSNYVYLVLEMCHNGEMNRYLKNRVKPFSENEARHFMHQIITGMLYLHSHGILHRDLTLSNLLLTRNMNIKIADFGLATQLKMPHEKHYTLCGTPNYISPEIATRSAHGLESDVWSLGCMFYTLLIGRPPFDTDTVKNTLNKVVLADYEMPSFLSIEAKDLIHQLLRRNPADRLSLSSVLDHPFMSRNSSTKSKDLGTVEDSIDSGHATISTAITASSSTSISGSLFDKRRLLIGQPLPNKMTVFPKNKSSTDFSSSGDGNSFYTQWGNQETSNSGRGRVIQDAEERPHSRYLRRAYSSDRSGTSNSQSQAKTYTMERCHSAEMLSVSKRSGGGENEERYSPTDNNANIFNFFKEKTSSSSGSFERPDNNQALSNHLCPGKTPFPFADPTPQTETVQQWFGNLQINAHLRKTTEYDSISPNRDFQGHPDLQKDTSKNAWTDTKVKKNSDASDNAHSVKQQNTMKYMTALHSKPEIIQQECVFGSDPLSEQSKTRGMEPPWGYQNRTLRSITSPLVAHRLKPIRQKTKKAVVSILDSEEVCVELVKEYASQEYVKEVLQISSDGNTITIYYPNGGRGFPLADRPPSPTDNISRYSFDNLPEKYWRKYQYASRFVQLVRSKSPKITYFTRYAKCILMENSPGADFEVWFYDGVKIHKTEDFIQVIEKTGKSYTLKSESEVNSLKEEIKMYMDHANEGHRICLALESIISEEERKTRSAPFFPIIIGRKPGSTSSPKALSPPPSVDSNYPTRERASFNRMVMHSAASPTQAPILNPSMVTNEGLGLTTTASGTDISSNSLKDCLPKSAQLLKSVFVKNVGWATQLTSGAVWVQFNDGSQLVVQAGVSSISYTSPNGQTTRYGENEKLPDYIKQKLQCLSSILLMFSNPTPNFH
- protocol: PLK-4 human kinase inhibition, scintillation proximity assay (SPA)
- Format: biochemical
- setup conditions: read-out: PLK4 pIC50 (converted)
measure: IC50 (nM)
API: value field is a number in nM; no unit string.

IC50 in this record for CN1CCCNC(=O)CN2CCN(CC2)Cc2cc(cc(N3CCOCC3)c2)Nc2nccc(n2)-c2ccc(cc2)C1 [Compound 136] : 1820

IC50 in this record for COc1cc2cc(c1)Nc1nccc(n1)-c1ccc(cc1)CN(C)CCNC(=O)CN1CCN(CC1)C2 [Compound 132] : 1410

IC50 in this record for COc1ccc2cc1CN(C)CCNC(=O)[C@H](CO)NCc1cc(Br)cc(c1)Nc1nccc-2n1 [Compound 119] : 3890

IC50 in this record for COCCNC(=O)c1ccc2cc1CN1CCC[C@H]1C(=O)NCc1cccc(c1)-c1ccnc(n1)N2 [Compound 40] : 288

----------
Provide the recorded IC50 for the entries that follow.
- target under test: CDK1/CyclinB (h) (Homo sapiens, UniProt P06493)
- Sequence (P06493 whole entry): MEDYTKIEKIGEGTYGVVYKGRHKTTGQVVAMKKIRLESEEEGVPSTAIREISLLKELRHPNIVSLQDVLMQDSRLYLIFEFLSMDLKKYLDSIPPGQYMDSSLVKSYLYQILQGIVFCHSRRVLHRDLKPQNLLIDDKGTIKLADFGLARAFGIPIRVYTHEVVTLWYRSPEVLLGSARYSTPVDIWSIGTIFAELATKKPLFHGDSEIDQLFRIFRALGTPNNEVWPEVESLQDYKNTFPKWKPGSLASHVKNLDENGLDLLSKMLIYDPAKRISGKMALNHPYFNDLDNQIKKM
- Sequence (P14635 whole entry partner): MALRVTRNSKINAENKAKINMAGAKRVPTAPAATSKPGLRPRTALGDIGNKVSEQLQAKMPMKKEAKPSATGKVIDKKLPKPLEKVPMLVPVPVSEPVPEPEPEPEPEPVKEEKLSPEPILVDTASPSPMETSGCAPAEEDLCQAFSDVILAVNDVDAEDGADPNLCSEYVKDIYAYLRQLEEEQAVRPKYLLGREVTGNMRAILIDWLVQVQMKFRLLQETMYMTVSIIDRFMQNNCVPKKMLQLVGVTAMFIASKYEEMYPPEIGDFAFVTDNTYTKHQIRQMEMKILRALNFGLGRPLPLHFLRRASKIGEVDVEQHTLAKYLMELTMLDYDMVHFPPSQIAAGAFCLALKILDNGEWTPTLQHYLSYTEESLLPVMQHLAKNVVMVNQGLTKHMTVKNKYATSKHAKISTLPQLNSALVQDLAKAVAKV
- protocol: CDK1/CyclinB human kinase inhibition, Invitrogen's FRET assay (Z'lyte)
- Type: biochemical
- setup conditions: read-out: CDK1 pIC50 (converted)

IC50 in this record for O=C1NCc2cccc(c2)-c2ccnc(n2)Nc2cccc(c2)CN[C@H]1CO : 0.646 µM

IC50 in this record for O=C1NCCNCc2ccc(cc2)-c2ccnc(n2)Nc2ccc(N3CCOCC3)c(c2)CN[C@H]1Cc1ccccc1 : > 10 µM

IC50 in this record for O=C1NCc2cccc(c2)-c2ccnc(n2)Nc2cc(ccc2Cl)CN2C[C@H](O)C[C@@H]12 : > 10 µM

IC50 in this record for COc1ccc2cc1CN(C)CCNC(=O)C1CCN(CC1)Cc1cc(NCCc3ccccc3)cc(c1)Nc1nccc-2n1 : > 10 µM

----------
- Tested on: MDA-MB-231
- protocol: Cellular proliferation assay (Alamar blue), MDA-MB-231
- Format: cell-based
- setup conditions: Homo sapiens, 10% FCS, 72 hours with compound, Alamar blue 24 h, read-out: MDA/MB231 (cellular proliferation assay, Table 4) (converted)
measure: IC50

IC50 in this record for COc1ccc2cc1CN(C)CCCNC(=O)C1CCN(CC1)Cc1cc(cc(NC(C)C)c1)Nc1nccc-2n1 : > 10 µM

IC50 in this record for CN1CCCNC(=O)C2CCN(CC2)Cc2cccc(c2)Nc2nccc(n2)-c2ccc(cc2)C1 : 7.59 µM

IC50 in this record for O=C1NCCOc2ccc(cc2)-c2ccnc(n2)Nc2ccc(N3CCOCC3)c(c2)CN2CCC1CC2 : 0.363 µM

IC50 in this record for C[C@@H]1NCc2cccc(c2)Nc2nccc(n2)-c2cccc(c2)CNC1=O : > 10 µM

IC50 in this record for C[C@@H]1NCc2cc(ccc2N2CCOCC2)Nc2nccc(n2)-c2ccc(cc2)OCCCNC1=O : > 10 µM

IC50 in this record for O=C1NCc2cccc(c2)-c2ccnc(n2)Nc2cc(ccc2Cl)CN2C[C@H](O)C[C@@H]12 : > 10 µM

IC50 in this record for O=C(NC1CCOCC1)c1ccc2cc1CN1CCC[C@H]1C(=O)NCc1cccc(c1)-c1ccnc(n1)N2 : > 10 µM

IC50 in this record for O=C1NCc2cc(ccc2N2CCOCC2)Nc2nccc(n2)-c2cccc(c2)CCCN2CCC[C@@H]12 : 0.501 µM

IC50 in this record for O=C1NCCNc2cc(ccn2)-c2ccnc(n2)Nc2ccc(N3CCOCC3)c(c2)CN2CCCC12 (stereo not shown) : > 10 µM

IC50 in this record for C[C@@H]1NCc2cc(ccc2N2CCOCC2)Nc2nccc(n2)-c2cccc(c2)CNC1=O : > 10 µM

IC50 in this record for CN1CCCNC(=O)[C@@H]2CCCN2Cc2cccc(c2)Nc2nccc(n2)-c2ccc(cc2)C1 : > 10 µM

IC50 in this record for O=C1NCc2cccc(c2)-c2ccnc(n2)Nc2ccc(cc2)CN2CCC[C@@H]12 : > 10 µM

IC50 in this record for COc1cc2cc(c1)Nc1nccc(n1)-c1ccc(cc1)CN(C)CCCNC(=O)[C@@H]1CCCN1C2 : > 10 µM

IC50 in this record for O=C1CN2CCN(CC2)Cc2cc(ccc2N2CCOCC2)Nc2nccc(n2)-c2cccc(c2)OCCN1 : 6.61 µM

IC50 in this record for C[C@@H]1NCc2cccc(c2)-c2ccnc(n2)Nc2ccc(N3CCOCC3)c(c2)CNC1=O : 8.13 µM

IC50 in this record for O=C1NCc2ccc(cc2)-c2ccnc(n2)Nc2ccc(N3CCOCC3)c(c2)CN2CCC1CC2 : 9.33 µM

----------
- System: HCT-116
- protocol: Cellular proliferation assay (Alamar blue), HCT-116
- Format: cell-based
- setup conditions: Homo sapiens, 10% FCS, 72 hours with compound, Alamar blue 4 h
Binning scheme for IC50: low = under 4 µM, medium = from 4 µM up to 6 µM, high = 6 µM and over

Q. Note: place this compound into its band. Item: COc1ccc2cc1CN(C)CCNC(=O)[C@@H]1CCCN1Cc1cc(C#N)cc(c1)Nc1nccc-2n1
A. medium

Q. Note: place this compound into its band. Item: COc1ccc2cc1CN(C)CCNC(=O)[C@@H]1CCCN1Cc1cc(NCCc3ccccc3)cc(c1)Nc1nccc-2n1
A. medium

Q. Note: place this compound into its band. Item: COc1ccc2cc1CN(C)CCCNC(=O)CN1CCN(CC1)Cc1cc(cc(NC(C)C)c1)Nc1nccc-2n1
A. high

Q. Note: place this compound into its band. Item: CN1CCNC(=O)CN2CCN(CC2)Cc2cc(cc(N3CCOCC3)c2)Nc2nccc(n2)-c2ccc(cc2)C1
A. high

Q. Note: place this compound into its band. Item: COc1ccc2cc1CN[C@@H](CO)C(=O)N(C)CCCN(C)c1ccc(cn1)-c1ccnc(n1)N2
A. high

Q. Note: place this compound into its band. Item: CN(C)CCNC(=O)c1cc2cc(c1)Nc1nccc(n1)-c1cccc(c1)CNC(=O)[C@@H]1CCCN1C2
A. low

Q. Note: place this compound into its band. Item: CN1CCNC(=O)[C@H](CO)NCc2cccc(c2)Nc2nccc(n2)-c2ccc(cc2)C1
A. high

Q. Note: place this compound into its band. Item: O=C1NCCNCc2ccc(cc2)-c2ccnc(n2)Nc2ccc(N3CCOCC3)c(c2)CN[C@H]1CO
A. high

Q. Note: place this compound into its band. Item: COc1ccc2cc1CN(C)CCCNC(=O)CN1CCN(CC1)Cc1cc(cc(N3CCOCC3)c1)Nc1nccc-2n1
A. low

Q. Note: place this compound into its band. Item: O=C1CN2CCN(CC2)Cc2cc(ccc2N2CCOCC2)Nc2nccc(n2)-c2ccc(cc2)CNCCCN1
A. high

Q. Note: place this compound into its band. Item: COc1cc2cc(c1OC)CN1CCC[C@H]1C(=O)NCc1cccc(c1)-c1ccnc(n1)N2
A. high

Q. Note: place this compound into its band. Item: C[C@@H]1NCc2cccc(c2)-c2ccnc(n2)Nc2ccc(N3CCOCC3)c(c2)CNC1=O
A. low

Q. Note: place this compound into its band. Item: COc1ccc2cc1CN(C)CCNC(=O)CN1CCN(CC1)Cc1cc(Br)cc(c1)Nc1nccc-2n1
A. high

Q. Note: place this compound into its band. Item: CC(C)Nc1cc2cc(c1)Nc1nccc(n1)-c1ccc(cc1)CN(C)CCCNC(=O)[C@@H]1CCCN1C2
A. low

Q. Note: place this compound into its band. Item: O=C1NCc2cccc(c2)-c2ccnc(n2)Nc2cccc(c2)CN2CCC[C@@H]12
A. high

Q. Note: place this compound into its band. Item: COc1ccc2cc1CN(C)CCNC(=O)C1CCN(CC1)Cc1cc(NCCc3ccccc3)cc(c1)Nc1nccc-2n1
A. medium

Q. Note: place this compound into its band. Item: COc1ccc2cc1CN(C)CCNC(=O)[C@@H]1CCCN1Cc1cc(cc(NC(C)C)c1)Nc1nccc-2n1
A. medium

Q. Note: place this compound into its band. Item: COc1ccc2cc1CN(C)CCCNC(=O)[C@@H]1CCCN1Cc1cc(cc(NC(C)C)c1)Nc1nccc-2n1
A. high

Q. Note: place this compound into its band. Item: O=C1NCc2cccc(c2)-c2ccnc(n2)Nc2cccc(c2)CN[C@H]1CO
A. low

Q. Note: place this compound into its band. Item: CC(C)Nc1cc2cc(c1)Nc1nccc(n1)-c1ccc(cc1)CN(C)CCNC(=O)[C@@H]1CCCN1C2
A. medium

Q. Note: place this compound into its band. Item: CN1CCNC(=O)C2CCN(CC2)Cc2cc(cc(N3CCOCC3)c2)Nc2nccc(n2)-c2ccc(cc2)C1
A. high

Q. Note: place this compound into its band. Item: C[C@@H]1NCc2cc(ccc2N2CCOCC2)Nc2nccc(n2)-c2cccc(c2)OCCCNC1=O
A. low

Q. Note: place this compound into its band. Item: O=C1NCc2cccc(c2)-c2ccnc(n2)Nc2cccc(c2)CN[C@H]1Cc1ccccc1
A. high

Q. Note: place this compound into its band. Item: C[C@@H]1NCc2cccc(c2)Nc2nccc(n2)-c2cccc(c2)CNC1=O
A. medium

Q. Note: place this compound into its band. Item: CN1CCCNC(=O)C2CCN(CC2)Cc2cc(cc(N3CCOCC3)c2)Nc2nccc(n2)-c2ccc(cc2)C1
A. low

Q. Note: place this compound into its band. Item: CN1CCNC(=O)[C@H](CO)NCc2cc(cc(N3CCOCC3)c2)Nc2nccc(n2)-c2ccc(cc2)C1
A. high
